The origin of these recorded values is patent US12280072B2.

IC50 overview
Molecular target: FXa (Homo sapiens)
Construct: 8 μg/mL FXa solution; purchased
Sequence (P01008 33-464): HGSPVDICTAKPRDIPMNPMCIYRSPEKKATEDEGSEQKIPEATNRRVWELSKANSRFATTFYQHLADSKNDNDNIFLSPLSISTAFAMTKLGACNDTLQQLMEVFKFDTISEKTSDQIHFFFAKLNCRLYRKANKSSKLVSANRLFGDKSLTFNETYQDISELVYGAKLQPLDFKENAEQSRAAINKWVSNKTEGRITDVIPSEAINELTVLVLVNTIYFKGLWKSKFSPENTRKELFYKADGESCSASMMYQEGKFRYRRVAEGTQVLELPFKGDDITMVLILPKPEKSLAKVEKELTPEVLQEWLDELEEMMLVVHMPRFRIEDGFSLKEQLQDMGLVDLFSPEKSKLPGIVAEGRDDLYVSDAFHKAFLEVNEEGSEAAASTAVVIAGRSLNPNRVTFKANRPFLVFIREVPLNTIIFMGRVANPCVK
Assay: AT-dependent Xa inhibitory activity assay
Format: biochemical
Conditions: in presence of AT; read-out: Drug concentration required to inhibit 50% of coagulation factor activity (IC50, ng/mL) Xa (AT)
Excerpt: AT-dependent Xa inhibitory activity assay: Heparin Anti-FIIa kit was used for detection. […] OD405 was detected by a microplate reader. Data processing: The average value of OD405 detected by the duplicated well was used as the detection value of the test sample and the reference of each concentration, and the slope of the linear fit between the detected value to the time value (the change rate of the absorbance value OD405/min) indicated enzymatic activity of coagulation factor. […]

Here is how some molecules turned out for IC50.
1) COC(=O)C1=CC(OC2OC(C)C(OS(=O)(=O)O)C(O)C2OS(=O)(=O)O)C(O)C(OC2C(NC(C)=O)C(OC3C(C(=O)OC)OC(OC4C(NC(C)=O)C(OC5C(C(=O)OC)OC(OC(C(CO)NC(C)=O)C(OS(=O)(=O)O)C(O)COS(=O)(=O)O)C(O)C5OC5OC(C)C(OS(=O)(=O)O)C(O)C5OS(=O)(=O)O)OC(COS(=O)(=O)O)C4OS(=O)(=O)O)C(O)C3OC3OC(C)C(OS(=O)(=O)O)C(O)C3OS(=O)(=O)O)OC(COS(=O)(=O)O)C2OS(=O)(=O)O)O1 (centres unmarked) [Compound A6] ... > 1940 nM
2) COCC(NC(C)=O)C(OC1OC(C(=O)OC)C(OC2OC(COS(=O)(=O)O)C(OS(=O)(=O)O)C(OC3OC(C(=O)OC)C(OC4OC(COS(=O)(=O)O)C(OS(=O)(=O)O)C(OC5OC(C(=O)OC)=CC(OC6OC(C)C(OS(=O)(=O)O)C(O)C6OS(=O)(=O)O)C5O)C4NC(C)=O)C(OC4OC(C)C(OS(=O)(=O)O)C(O)C4OS(=O)(=O)O)C3O)C2NC(C)=O)C(OC2OC(C)C(OS(=O)(=O)O)C(O)C2OS(=O)(=O)O)C1O)C(OS(=O)(=O)O)C(O)COS(=O)(=O)O (centres unmarked) [Compound A8] ... > 1930 nM
3) CC(=O)NC1C(OC2C(C(=O)O)OC(OC3C(NC(C)=O)C(OC(C(O)C(=O)O)C(OC4OC(C)C(OS(=O)(=O)O)C(OS(=O)(=O)O)C4O)C(O)CO)OC(COS(=O)(=O)O)C3OS(=O)(=O)O)C(O)C2OC2OC(C)C(OS(=O)(=O)O)C(OS(=O)(=O)O)C2O)OC(COS(=O)(=O)O)C(OS(=O)(=O)O)C1OC1OC(C(=O)O)=CC(OC2OC(C)C(OS(=O)(=O)O)C(OS(=O)(=O)O)C2O)C1O (centres unmarked) [Compound B2] ... > 2300 nM
4) COC(=O)C1=CC(OC2OC(C)C(OS(=O)(=O)O)C(O)C2OS(=O)(=O)O)C(O)C(OC2C(NC(C)=O)C(OC3C(C(=O)OC)OC(OC4C(NC(C)=O)C(OC5C(C(=O)OC)OC(OCc6ccccc6)C(O)C5OC5OC(C)C(OS(=O)(=O)O)C(O)C5OS(=O)(=O)O)OC(COS(=O)(=O)O)C4OS(=O)(=O)O)C(O)C3OC3OC(C)C(OS(=O)(=O)O)C(O)C3OS(=O)(=O)O)OC(COS(=O)(=O)O)C2OS(=O)(=O)O)O1 (centres unmarked) [Compound B10] ... > 2170 nM

Okay, now this molecule:
Ask: What value of measured IC50 is listed for CC1OC(OC2C=C(C(=O)O)OC(OC3C(NS(=O)(=O)O)C(OC4C(C(=O)O)OC(OC5C(NS(=O)(=O)O)C(OC6C(C(=O)O)OC(OC(C(CO)NS(=O)(=O)O)C(OS(=O)(=O)O)C(O)COS(=O)(=O)O)C(O)C6OC6OC(C)C(OS(=O)(=O)O)C(O)C6OS(=O)(=O)O)OC(COS(=O)(=O)O)C5OS(=O)(=O)O)C(O)C4OC4OC(C)C(OS(=O)(=O)O)C(O)C4OS(=O)(=O)O)OC(COS(=O)(=O)O)C3OS(=O)(=O)O)C2O)C(OS(=O)(=O)O)C(O)C1OS(=O)(=O)O (centres unmarked) [Compound A7] ?
Reply: > 1880 nM

====

IC50 overview
biological target: intrinsic factor Xase (Homo sapiens); construct: 60 nM FIXa; purchased; assay: Xase inhibitory activity assay; type: biochemical; conditions: read-out: Drug concentration required to inhibit 50% of coagulation factor activity (IC50, ng/mL) Xase (converted)
Sequence (P00740 47-191 limits assumed): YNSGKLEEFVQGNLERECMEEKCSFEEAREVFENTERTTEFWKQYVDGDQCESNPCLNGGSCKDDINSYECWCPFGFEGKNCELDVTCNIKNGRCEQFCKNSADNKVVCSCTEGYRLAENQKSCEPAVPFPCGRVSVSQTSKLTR
Sequence (P00740 227-461 limits assumed): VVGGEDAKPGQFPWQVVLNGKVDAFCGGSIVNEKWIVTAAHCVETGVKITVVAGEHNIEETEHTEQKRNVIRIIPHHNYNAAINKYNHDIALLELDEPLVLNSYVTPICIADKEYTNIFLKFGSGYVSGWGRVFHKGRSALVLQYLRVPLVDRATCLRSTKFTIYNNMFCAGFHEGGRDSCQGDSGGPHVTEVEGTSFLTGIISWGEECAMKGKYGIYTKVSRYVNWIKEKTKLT
Numeric answer only, unit nM assumed.

Here is how some molecules turned out for IC50.
1. CC(=O)NC1C(OC2C(C(=O)O)OC(OC3C(NC(C)=O)C(OC4C(C(=O)O)OC(O)C(O)C4OC4OC(C)C(OS(=O)(=O)O)C(OS(=O)(=O)O)C4O)OC(COS(=O)(=O)O)C3OS(=O)(=O)O)C(O)C2OC2OC(C)C(OS(=O)(=O)O)C(OS(=O)(=O)O)C2O)OC(COS(=O)(=O)O)C(OS(=O)(=O)O)C1OC1OC(C(=O)O)=CC(OC2OC(C)C(OS(=O)(=O)O)C(OS(=O)(=O)O)C2O)C1O (stereo not drawn) [Compound B7] ... 26.8
2. CC(=O)N[C@H]1[C@H](O[C@H]2[C@H](O[C@@H]3O[C@@H](C)[C@@H](OS(=O)(=O)O)[C@@H](OS(=O)(=O)O)[C@@H]3O)[C@@H](O)C(O)O[C@@H]2C(=O)O)O[C@H](COS(=O)(=O)O)[C@H](OS(=O)(=O)O)[C@@H]1O[C@@H]1OC(C(=O)O)=C[C@H](O[C@@H]2O[C@@H](C)[C@@H](OS(=O)(=O)O)[C@@H](OS(=O)(=O)O)[C@@H]2O)[C@H]1O (stereo partly drawn) [Compound B6] ... 1260
3. CC(=O)NC1C(OC2C(C(=O)O)OC(OC3C(NC(C)=O)C(OC(C(O)C(=O)O)C(OC4OC(C)C(OS(=O)(=O)O)C(OS(=O)(=O)O)C4O)C(O)CO)OC(COS(=O)(=O)O)C3OS(=O)(=O)O)C(O)C2OC2OC(C)C(OS(=O)(=O)O)C(OS(=O)(=O)O)C2O)OC(COS(=O)(=O)O)C(OS(=O)(=O)O)C1OC1OC(C(=O)O)=CC(OC2OC(C)C(OS(=O)(=O)O)C(OS(=O)(=O)O)C2O)C1O (stereo not drawn) [Compound B2] ... 29.5
4. COCC(NC(C)=O)C(OC1OC(C(=O)OC)C(OC2OC(COS(=O)(=O)O)C(OS(=O)(=O)O)C(OC3OC(C(=O)OC)C(OC4OC(COS(=O)(=O)O)C(OS(=O)(=O)O)C(OC5OC(C(=O)OC)=CC(OC6OC(C)C(OS(=O)(=O)O)C(O)C6OS(=O)(=O)O)C5O)C4NC(C)=O)C(OC4OC(C)C(OS(=O)(=O)O)C(O)C4OS(=O)(=O)O)C3O)C2NC(C)=O)C(OC2OC(C)C(OS(=O)(=O)O)C(O)C2OS(=O)(=O)O)C1O)C(OS(=O)(=O)O)C(O)COS(=O)(=O)O (stereo not drawn) [Compound A8] ... 27.2
5. CC(=O)NC1C(OC2C(C(=O)O)OC(OC3C(NC(C)=O)C(OC4C(C(=O)O)OC(OCc5ccccc5)C(O)C4OC4OC(C)C(OS(=O)(=O)O)C(O)C4OS(=O)(=O)O)OC(COS(=O)(=O)O)C3OS(=O)(=O)O)C(O)C2OC2OC(C)C(OS(=O)(=O)O)C(O)C2OS(=O)(=O)O)OC(COS(=O)(=O)O)C(OS(=O)(=O)O)C1OC1OC(C(=O)O)=CC(OC2OC(C)C(OS(=O)(=O)O)C(O)C2OS(=O)(=O)O)C1O (stereo not drawn) [Compound B9] ... 26.3
6. CC(=O)N[C@H]1[C@H](O[C@@H]([C@H](O[C@@H]2O[C@@H](C)[C@@H](OS(=O)(=O)O)[C@@H](OS(=O)(=O)O)[C@@H]2O)[C@@H](O)CO)[C@H](O)C(=O)O)O[C@H](COS(=O)(=O)O)[C@H](OS(=O)(=O)O)[C@@H]1O[C@@H]1OC(C(=O)O)=C[C@H](O[C@@H]2O[C@@H](C)[C@@H](OS(=O)(=O)O)[C@@H](OS(=O)(=O)O)[C@@H]2O)[C@H]1O [Compound B1] ... 639
7. COC(=O)C1=CC(OC2OC(C)C(OS(=O)(=O)O)C(O)C2OS(=O)(=O)O)C(O)C(OC2C(NC(C)=O)C(OC3C(C(=O)OC)OC(OC4C(NC(C)=O)C(OC5C(C(=O)OC)OC(OCc6ccccc6)C(O)C5OC5OC(C)C(OS(=O)(=O)O)C(O)C5OS(=O)(=O)O)OC(COS(=O)(=O)O)C4OS(=O)(=O)O)C(O)C3OC3OC(C)C(OS(=O)(=O)O)C(O)C3OS(=O)(=O)O)OC(COS(=O)(=O)O)C2OS(=O)(=O)O)O1 (stereo not drawn) [Compound B10] ... 26.7
8. CC(=O)NC1C(OC2C(C(=O)O)OC(OC3C(NC(C)=O)C(OC4C(C(=O)O)OC(OC5C(NC(C)=O)C(OC(C(O)C(=O)O)C(OC6OC(C)C(OS(=O)(=O)O)C(OS(=O)(=O)O)C6O)C(O)CO)OC(COS(=O)(=O)O)C5OS(=O)(=O)O)C(O)C4OC4OC(C)C(OS(=O)(=O)O)C(OS(=O)(=O)O)C4O)OC(COS(=O)(=O)O)C3OS(=O)(=O)O)C(O)C2OC2OC(C)C(OS(=O)(=O)O)C(OS(=O)(=O)O)C2O)OC(COS(=O)(=O)O)C(OS(=O)(=O)O)C1OC1OC(C(=O)O)=CC(OC2OC(C)C(OS(=O)(=O)O)C(OS(=O)(=O)O)C2O)C1O (stereo not drawn) [Compound B3] ... 10.3

Okay, now this molecule:
Ask: Lab note: need IC50 with intrinsic factor Xase (Homo sapiens) for entry CC(=O)NC(CO)C(OC1OC(C(=O)O)C(OC2OC(COS(=O)(=O)O)C(OS(=O)(=O)O)C(OC3OC(C(=O)O)C(OC4OC(COS(=O)(=O)O)C(OS(=O)(=O)O)C(OC5OC(C(=O)O)=CC(OC6OC(C)C(OS(=O)(=O)O)C(O)C6OS(=O)(=O)O)C5O)C4NC(C)=O)C(OC4OC(C)C(OS(=O)(=O)O)C(O)C4OS(=O)(=O)O)C3O)C2NC(C)=O)C(OC2OC(C)C(OS(=O)(=O)O)C(O)C2OS(=O)(=O)O)C1O)C(OS(=O)(=O)O)C(O)COS(=O)(=O)O (stereo not drawn) [Compound A2] , please look it up.
Reply: 23.8
